- Test system: DU-145
- Assay Explanation: Cytotoxicity against human DU145 cells at 100 uM after 2 days by sulforhodamine B assay
- Assay type: functional
- Recorded Conditions: DU-145, 48 h
Property Label: inhibition at 100 µM (%)
Write the answer as a number in %, unit excluded.

Worked examples follow.
{"Molecule": "CCCCCc1nc2c(-c3ccc(Cl)cc3)n[nH]c2c(=O)n1NC(=O)c1ccccc1", "Measured Result": 88.7}
{"Molecule": "CCCc1nc2c(-c3ccc(Cl)cc3)n[nH]c2c(=O)n1NC(=O)Cc1ccccc1", "Measured Result": 89.7}
{"Molecule": "O=C(Nn1c(-c2cccc([N+](=O)[O-])c2)nc2c(-c3ccc(F)cc3)n[nH]c2c1=O)c1cccnc1", "Measured Result": 24.9}
{"Molecule": "CCCCCc1nc2c(-c3ccc(Cl)cc3)n[nH]c2c(=O)n1NC(=O)c1cccc(C)c1", "Measured Result": 88.8}
{"Molecule": "COc1cccc(-c2nc3c(-c4cccc(Cl)c4)n[nH]c3c(=O)n2NC(=O)c2ccccc2)c1", "Measured Result": 93.5}
{"Molecule": "CCCc1n[nH]c2c(=O)n(NC(=O)c3ccncc3)c(-c3cccc([N+](=O)[O-])c3)nc12", "Measured Result": 15.1}

Which inhibition at 100 µM reading was recorded for the molecule O=C(Nn1c(-c2cccc([N+](=O)[O-])c2)nc2c(-c3ccc(Cl)cc3)n[nH]c2c1=O)c1cccnc1 ?
31

Also need O=C(Nn1c(-c2cccc([N+](=O)[O-])c2)nc2c(CCc3ccccc3)n[nH]c2c1=O)c1ccccc1 , thanks.
92.5

Data origin, for the record: ChEMBL document CHEMBL1154962
